# EXPERIMENTAL TARGET: T1, soluble form of the extracellular domain of human CD40 (Creative BioMart) (human, UniProt P25942 21-193)
# T1 construct: Bought
# T1 sequence (P25942 21-193 limits assumed): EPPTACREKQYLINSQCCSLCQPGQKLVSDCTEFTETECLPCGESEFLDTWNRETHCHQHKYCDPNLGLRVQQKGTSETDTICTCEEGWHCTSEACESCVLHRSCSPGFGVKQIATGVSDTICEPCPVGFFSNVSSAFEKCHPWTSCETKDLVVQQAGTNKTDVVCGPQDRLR
# PROTOCOL TEXT: SPR, Ab captured
Listed below: Kd values for each entry.
Quick note: give the figure in nM, leave out the unit.

Query (binder): AD164.76.3 (antibody, V domains shown, mouse hybridoma antibody; also called muAb10; AD164.76.2) VH: DVQLQESGPGLVKPSQSLSLTCSVTGYSITSNYYWNWIRQFPGNKLEWMGYIRYDGSNNYNPSLKNRISITRDTSKNQFFLRLNSVTTEDTATYYCTRLDYWGQGTTLTVSS VL: DAVMTQTPLSLPVSLGDQASISCRSSQSLENSNGNTFLNWFLQKPGQSPQLLIYRISNRFSGVPDRFSGSGSGTDFTLKISRVEAEDLGVYFCLQVTHVPFTFGSGTKLEIK ; field requested: Kd
13

// query: AD163.27.12 (antibody, V domains shown, mouse hybridoma antibody; also called muAb7) VH: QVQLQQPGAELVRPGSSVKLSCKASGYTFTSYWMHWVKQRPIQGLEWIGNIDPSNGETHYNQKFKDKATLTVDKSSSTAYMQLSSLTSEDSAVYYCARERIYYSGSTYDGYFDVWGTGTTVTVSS VL: QIVLTQSPAIMSASPGEKVTMTCSASSSLSYMHWYQQKSGTSPKRWIYDTSKLASGVPARFSGSGSGTSYSLTISSMEGEDGATYYCQQWSSNPWTFGGGTKLEIK
64

Next binder: AD163.9.3 (antibody, V domains shown, mouse hybridoma antibody; also called muAb1) VH: QVQLQQPGAELVKPGASVKMSCKASGYTFTSYWITWVKQRPGQGLEWIGEINPGSGSTNYNEKFKSKATLTVDTSSSTAYMQLSSLTSEDSAVYYCARNRGTGDYWGQGTTLTVSS VL: DVVMTQTPLSLPVSLGDQASISCRSSQSLVHSYGNTYLHWYLQKPGQSPKFLIYKVSNRISGVPDRLSGSGSGTDFTLKISRVEPEDLGVYFCSQSTHVPYTFGGGTKLEIK
35
